test system: control sera (pooled serum of ten healthy LUMC hospital workers; commercial negative donor pooled serum from the Dutch bloodbank); type: binding, human; parameters: unit not given here
PROPERTY_LABEL: Binding of Control Serum Blood-Bank to Looped peptides
Number, no unit, nothing else.

In [3]: df
Out[3]:
    sequence_input  observed_measurement
0  SPKLFIRQEEVQQEL                   0.6
1  WQLALYKGFQFTCNL                   0.6

Consider now this further sequence.
Please look up its Binding of Control Serum Blood-Bank to Looped peptides: ARPKQRRPQGLPNNT
0.6

---

// reported Binding of serum SARS-green to looped/cyclic peptides of protein X2 of SARS-CoV Urbani for each item listed
test system: antibodies in sera from SARS patients (sera 1a, 1b, 2, 6, 37, 62, London, SARS-yellow, SARS-green); type: binding, human
Answer using only a numeral; do not append any unit.

Query (sequence): SQIQLSLLKVTAFQH ; field requested: Binding of serum SARS-green to looped/cyclic peptides of protein X2 of SARS-CoV Urbani
0.2

Please look up its Binding of serum SARS-green to looped/cyclic peptides of protein X2 of SARS-CoV Urbani: ITVSQIQLSLLKVTA
0.3

Requested read-out: Binding of serum SARS-green to looped/cyclic peptides of protein X2 of SARS-CoV Urbani. Entry: TALQELLIQQWIQFM
0.5

---

test system: antibodies in sera from SARS patients (sera 1a, 1b, 2, 6, 37, 62, London, SARS-yellow, SARS-green); type: binding, human
PROPERTY_LABEL: Binding of serum 62 to linear peptides of protein X1 of SARS-CoV Urbani

In [3]: df
Out[3]:
    sequence_input  observed_measurement
0  FLAVFQSATKIIALN                   0.6
1  GFQFICNLLLLFVTI                   0.6
2  YFLQCINACRIIMRC                   0.6
3  YALIYFLQCINACRI                   0.6

Looking for the measured Binding of serum 62 to linear peptides of protein X1 of SARS-CoV Urbani of KIIALNKRWQLALYK , can you help?
0.8

I am curious: what Binding of serum 62 to linear peptides of protein X1 of SARS-CoV Urbani value has been reported for VAFLAVFQSATKIIA ?
0.6

Can you share its Binding of serum 62 to linear peptides of protein X1 of SARS-CoV Urbani? I mean this sequence: CINACRIIMRCWLCW
0.7

Value lookup for Binding of serum 62 to linear peptides of protein X1 of SARS-CoV Urbani; key = HTIDGSSGVANPAMD
0.7

Query (sequence): TGIENATFFIFNKLV ; field requested: Binding of serum 62 to linear peptides of protein X1 of SARS-CoV Urbani
0.7

// query Binding of serum 62 to linear peptides of protein X1 of SARS-CoV Urbani value for entry TIDGSSGVANPAMDP
0.6

Given LALYKGFQFICNLLL , state its recorded Binding of serum 62 to linear peptides of protein X1 of SARS-CoV Urbani.
0.6

Look up Binding of serum 62 to linear peptides of protein X1 of SARS-CoV Urbani for this sequence: DLFMRFFTLGSITAQ
0.5

Any idea what its Binding of serum 62 to linear peptides of protein X1 of SARS-CoV Urbani is? The sequence is WLVIGVAFLAVFQSA
0.6

Entry ATATIPLQASLPFGW has what Binding of serum 62 to linear peptides of protein X1 of SARS-CoV Urbani?
0.8

---

test system: antibodies in sera from SARS patients (sera 1a, 1b, 2, 6, 37, 62, London, SARS-yellow, SARS-green); assay type: binding, human; design: unit not given here
Short version: Binding of serum 37 to looped/cyclic peptides of protein N of SARS-CoV Urbani at least 0.5 is 1.0, less is 0.0.

>>> df
    sequence_input  cat
0  RLNQLESKVSGKGQQ  1.0
1  PTEPKKDKKKKTDEA  0.0
2  TLLPAADMDDFSRQL  0.0

Tell me whether Binding of serum 37 to looped/cyclic peptides of protein N of SARS-CoV Urbani is at least 0.5 here: FGRRGPEQTQGNFGD
0.0

Exam item: decide whether the reported Binding of serum 37 to looped/cyclic peptides of protein N of SARS-CoV Urbani for LLDRLNQLESKVSGK is at least 0.5.
0.0

Hi, just wondering whether TKQYNVTQAFGRRGP shows Binding of serum 37 to looped/cyclic peptides of protein N of SARS-CoV Urbani of 0.5 or higher.
1.0

Determine whether measured Binding of serum 37 to looped/cyclic peptides of protein N of SARS-CoV Urbani meets or exceeds 0.5 for APSASAFFGMSRIGM
1.0

Is Binding of serum 37 to looped/cyclic peptides of protein N of SARS-CoV Urbani at least 0.5? Consider GDGKMKELSPRWYFY
1.0

---

tested on: control sera (pooled serum of ten healthy LUMC hospital workers; commercial negative donor pooled serum from the Dutch bloodbank); type: binding, human; design: unit not given here
PROPERTY_LABEL: Binding of Control serum Blood-bank to linear peptides

Known results for sequences:
    sequence_input  observed_measurement
0  HQTAAFRDVLVVLNK                   0.5
1  PKFTTSLSLHKLLQT                   0.7

For the sequence shown here, TEVYYQLESTQITTD , give the reported Binding of Control serum Blood-bank to linear peptides.
0.5

Reported Binding of Control serum Blood-bank to linear peptides, sequence WQLALYKGFQFTCNL : ____
0.6

Value lookup for Binding of Control serum Blood-bank to linear peptides; key = RVKNLNSSEGVPDLL
1.0

For the sequence VCWHTHNYDYCIPYN , what Binding of Control serum Blood-bank to linear peptides is on record?
0.7

Fill in: Binding of Control serum Blood-bank to linear peptides of PNNNAATVLQLPQGT is ___
0.6

Data request, read-out Binding of Control serum Blood-bank to linear peptides, for TIDGSSGVANPAMDP
0.4

Using the record for QGNFGDQDLIRQGTD , report its Binding of Control serum Blood-bank to linear peptides.
0.6

I'd like to know its Binding of Control serum Blood-bank to linear peptides. The sequence in question is LCWKCKSKNPLLYDA
0.7

// Binding of Control serum Blood-bank to linear peptides lookup, key: RGNSRNSTPGSSRGN
0.8

# get_value(readout='Binding of Control serum Blood-bank to linear peptides', item= QIGGYSEDRHSGVKD )
0.3

Dear colleague, I am looking for the recorded Binding of Control serum Blood-bank to linear peptides of the following sequence: VHGYFTEVYYQLEST
0.4

Record request: Binding of Control serum Blood-bank to linear peptides value, item QTQGNFGDQDLIRQG
0.9

Looking for the measured Binding of Control serum Blood-bank to linear peptides of KVTAFQHQNSKKTTK , can you help?
0.2

Param item = RRVRGGDGKMKELSP ; retrieve measured Binding of Control serum Blood-bank to linear peptides.
0.9

Which Binding of Control serum Blood-bank to linear peptides value is on record for RSAPRITFGGPTDST ?
0.6

Binding of Control serum Blood-bank to linear peptides lookup needed for CAYCCNIVNVSLVKP , thanks.
1.1

---

Binding of serum 1b to linear peptides of protein N of SARS-CoV Urbani for assorted sequences
test system: antibodies in sera from SARS patients (sera 1a, 1b, 2, 6, 37, 62, London, SARS-yellow, SARS-green); assay type: binding, human
Enter the number alone.

Solved entries (count: 6):
>>> df
    sequence_input  observed_measurement
0  QLQNSMSGASADSTQ                   0.1
1  RRPQGLPNNTASWFT                   0.1
2  TEGALNTPKDHIGTR                   0.1
3  QDLIRQGTDYKHWPQ                   0.1
4  EASLPYGANKEGIVW                   0.1
5  LIRQGTDYKHWPQIA                   0.2

We next turn to a different sequence, shown below.
What Binding of serum 1b to linear peptides of protein N of SARS-CoV Urbani value was documented for this sequence, DGKMKELSPRWYFYY ?
0.1

---

test system: antibodies in sera from SARS patients (sera 1a, 1b, 2, 6, 37, 62, London, SARS-yellow, SARS-green); format: binding, human; set-up: unit not given here
PROPERTY_LABEL: Binding of serum 6 to linear peptides of protein M of SARS-CoV Urbani
Please give only the number in your answer, with no unit.

Endpoint output: Binding of serum 6 to linear peptides of protein M of SARS-CoV Urbani of PKEITVATSRTLSYY . Value?
0.2

Can you share its Binding of serum 6 to linear peptides of protein M of SARS-CoV Urbani? I mean this sequence: FAAYNRYRIGNYKLN
0.4

Requested read-out: Binding of serum 6 to linear peptides of protein M of SARS-CoV Urbani. Entry: VATSRTLSYYKLGAS
0.8

Name the recorded Binding of serum 6 to linear peptides of protein M of SARS-CoV Urbani for CIVGLMWLSYFVASF .
0.3

Value lookup for Binding of serum 6 to linear peptides of protein M of SARS-CoV Urbani; key = ACIVGLMWLSYFVAS
0.4

Endpoint output: Binding of serum 6 to linear peptides of protein M of SARS-CoV Urbani of AYSNRNRFLYIIKLV . Value?
0.6

Param item = RYRIGNYKLNTDHAG ; retrieve measured Binding of serum 6 to linear peptides of protein M of SARS-CoV Urbani.
0.2

What value of measured Binding of serum 6 to linear peptides of protein M of SARS-CoV Urbani is listed for LWPVTLACFVLAAVY ?
0.3

Any idea what Binding of serum 6 to linear peptides of protein M of SARS-CoV Urbani was measured for RPLMESELVIGAVII ?
0.3

Give its Binding of serum 6 to linear peptides of protein M of SARS-CoV Urbani value. Item: IVGLMWLSYFVASFR
0.3

Quick one: Binding of serum 6 to linear peptides of protein M of SARS-CoV Urbani of YIIKLVFLWLLWPVT ?
0.4

// returns reported Binding of serum 6 to linear peptides of protein M of SARS-CoV Urbani for input LRGTIVTRPLMESEL
0.3
